Source: patent US20040242870A1

- System: HIV-1
- Test: HeLa CD4 LTR β-gal HIV-1 attachment assay
- Type: cell-based
- Condition label: Human immunodeficiency virus 1, HeLa, Experiment 1; pretreat 24 h; read-out: IC50
Outcome measure: IC50

The examples below pair each entry with its known result.
Compound	Target desc	IC50
COc1cc(C(C)(C)CCCC(C)C)cc(OC)c1OC	HIV-1	> 50 µM
CC(C)=CCCC1(C)CCc2c(O)cc(C(C)(C)CCCC(C)C)cc2O1 (stereo not drawn)	HIV-1	7.4 µM

Consider the additional compound presented here.
Given the compound COc1cc(-c2ccc(/N=N/c3ccc4c(S(=O)(=O)O)cc(S(=O)(=O)O)c(N)c4c3O)c(OC)c2)ccc1/N=N/c1ccc2c(S(=O)(=O)O)cc(S(=O)(=O)O)c(N)c2c1O [CSB, Chicago Sky Blue, reference compound] , what is its reported IC50?
1.3 µg/mL

###

Listed compounds paired with reported pIC50
- Tested on: HIV-1 strain RoJo
- Test: PBMC time-of-addition assay (RT in cell-free supernatant at 6 days)
- Type: cell-based
- Condition label: Human immunodeficiency virus 1, PBMC, 6 h, 6 h post infection
Remember, pIC50 is on a log scale: it is -log10 of the molar concentration.

Examples with their reported pIC50 follow.
Compound	Target desc	pIC50
C=C(C)[C@@H]1CCC(C)=C[C@H]1c1c(O)cc(CCCCC)cc1O [Cannabidiol, reference compound]	HIV-1 strain RoJo	4.92
CC(C)=CCCC1(C)CCc2c(O)cc(C(C)(C)CCCC(C)C)cc2O1 (stereo not drawn)	HIV-1 strain RoJo	4.65

Given the compound COc1cc(C(C)(C)CCCC(C)C)cc(OC)c1OC , what is its reported pIC50?
4.34

###

- Tested on: HeLa CD4 LTR β-gal cells
- Test: Compound toxicity in attachment assay (MTS dye reduction, sister plates)
- Format: cell-based
- Condition label: Experiment 2; pretreat 4 h; read-out: TC50 (the source's name)
Outcome measure: CC50 (µM)
Report only the number, with the unit µM understood.

CC50 of CC(C)=CCCC1(C)CCc2c(O)cc(C(C)(C)CCCC(C)C)cc2O1 (stereo not shown) on HeLa CD4 LTR β-gal cells?
29

###

- Tested on: HIV-1 strain RoJo
- Test: PBMC time-of-addition assay (RT in cell-free supernatant at 6 days)
- Type: cell-based
- Condition label: pre-treat 4 h prior to infection
- Procedure: Peripheral blood monocular cells (PBMCs) were obtained from normal hepatitis and HIV-1 negative donors by ficoll hypaque gradient separation. The mononuclear cells were washed to remove residual separation media, counted, viability determined and resuspended in RPMI 1640 medium supplemented with 15 % FBS (heat inactivated), 2 mM L-glutamine, 100 U/mL penicillin, 100 μg/mL streptomycin, and 10 μg/mL gentamycin with 2 μg/mL phytohemagluttin (PHA) at 1×10^6 cells/mL. […]
Outcome measure: pIC50
Reminder that pIC50 is minus the log10 of a molar concentration.

I'm curious: which pIC50 was measured for Cc1cn([C@H]2C[C@H](N=[N+]=[N-])[C@@H](CO)O2)c(=O)[nH]c1=O [AZT, reference compound] tested on HIV-1 strain RoJo?
8.96

###

// reported pIC50 for each item listed
- System: HIV-1 strain RoJo
- Test: PBMC time-of-addition assay (RT in cell-free supernatant at 6 days)
- Type: cell-based
- Condition label: Human immunodeficiency virus 1, PBMC, pre-treat 24 h prior to infection
For clarity, pIC50 is expressed as the negative log10 of concentration in mol/L.

The examples below pair each entry with its known result.
Molecule	pIC50
C=C(C)[C@@H]1CCC(C)=C[C@H]1c1c(O)cc(CCCCC)cc1O [Cannabidiol, reference compound]	4.98
CC(C)=CCCC1(C)CCc2c(O)cc(C(C)(C)CCCC(C)C)cc2O1 (stereo not drawn)	4.92

# ---- query molecule ----
Field request: pIC50 | item: COc1cc(C(C)(C)CCCC(C)C)cc(OC)c1OC
4.97
